# Test system: CAPAN-1 (a BRCA-2-mutated pancreatic cancer cell line)
# experimentalDetails: Cell proliferation assay, three-day, CellTiter-Glo, CAPAN-1
# Format: cell-based
# testParameters: Homo sapiens; CAPAN-1, 0.14 uM, replicate 1; read-out: Inh % 1
The molecules listed here are annotated with their inhibition at […].
Returns: string containing the numeric result and its unit.

Use these answered entries as a reference point.
- NC(=O)c1cccc2[nH]c(C3CCN(CCCC(=O)c4ccccc4)C3)nc12 (stereo not drawn): 8.1%
- NC(=O)c1cccc2[nH]c(C3CCN(CCC(=O)c4ccc(Cl)cc4)C3)nc12 (stereo not drawn): 13.7%

API: the following record is the query input.
inhibition at […] on CAPAN-1 (a BRCA-2-mutated pancreatic cancer cell line) for NC(=O)c1cccc2[nH]c(C3CCN(CC(=O)c4ccccc4)C3)nc12 (stereo not drawn) is 3.7%
